# System: HEK293T cell aminopeptidase activity (Leu-AMC cleavage)
# ASSAY OVERVIEW: Aminopeptidase assay with Leu-AMC in HEK293T cell extracts
# Type: biochemical, human
# CONDITION NOTES: HEK293T cell extract, 10 µM inhibitor
TEST READOUT: effect on cleavage of Leu-AMC

[[record]]
molecule = "CC(C)C[C@H](NC(=O)CNC(=O)c1cc(Cl)ccc1Cl)B(O)O [MLN2238]"
result = "inhibit"

[[record]]
molecule = "CC(C)C[C@H](NC(=O)[C@H](CC(C)C)NC(=O)[C@H](CC(C)C)NC(=O)OCc1ccccc1)B(O)O [MG262]"
result = "inhibit"

